Target: T1, human ENTPD2, full length, on cells (human, UniProt Q9Y5L3 1-495); further: test concentration or dose not given here
T1 sequence: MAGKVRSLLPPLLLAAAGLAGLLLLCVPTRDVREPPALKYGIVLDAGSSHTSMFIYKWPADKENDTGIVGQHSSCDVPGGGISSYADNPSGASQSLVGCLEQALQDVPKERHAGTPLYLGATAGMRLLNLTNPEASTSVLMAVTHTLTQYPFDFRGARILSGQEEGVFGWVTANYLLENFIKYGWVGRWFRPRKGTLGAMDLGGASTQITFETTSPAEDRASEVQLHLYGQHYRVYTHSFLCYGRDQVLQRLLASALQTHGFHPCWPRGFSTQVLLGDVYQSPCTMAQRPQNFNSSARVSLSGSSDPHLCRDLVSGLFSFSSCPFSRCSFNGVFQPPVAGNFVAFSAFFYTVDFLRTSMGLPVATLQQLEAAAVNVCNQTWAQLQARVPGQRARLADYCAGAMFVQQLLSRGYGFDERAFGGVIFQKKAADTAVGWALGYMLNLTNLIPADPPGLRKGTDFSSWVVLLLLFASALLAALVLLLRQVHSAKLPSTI
Assay: cell-based or functional assay

Binder	Unit string	RKO Assay % inhibition
ANTI-HUMAN ENTPD2 MAB5 (antibody, human IgG1, kappa, V domains shown) VH: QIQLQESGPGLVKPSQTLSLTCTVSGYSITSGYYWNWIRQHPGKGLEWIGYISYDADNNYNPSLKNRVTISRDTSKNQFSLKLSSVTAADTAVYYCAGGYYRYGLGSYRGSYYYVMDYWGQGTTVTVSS VL: ETVLTQSPATLSVSPGERATISCKASQSVDYDGNSYMNWYQQKPGQAPRLLIYAASNLESGIPARFSGSGSGTDFTLTISSVEPEDAATYYCQQSNEDPPTFGGGTKLEIKR	%	80
ANTI-HUMAN ENTPD2 MAB4 (antibody, human IgG1, kappa, V domains shown) VH: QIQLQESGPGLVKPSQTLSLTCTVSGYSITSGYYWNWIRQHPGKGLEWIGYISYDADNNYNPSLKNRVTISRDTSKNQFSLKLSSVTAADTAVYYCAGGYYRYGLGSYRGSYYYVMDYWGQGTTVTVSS VL: ETVLTQSPATLSVSPGERATISCKASQSVDYEGHSYMNWYQQKPGQAPRLLIYAASNLESGIPARFSGSGSGTDFTLTISSVEPEDAATYYCQQSNEDPPTFGGGTKLEIKR	%	74
ANTI-HUMAN ENTPD2 MAB9 (antibody, human IgG1, lambda, V domains shown) VH: QVQLVQSGAEVKKPGSSVKVSCKASGGTFDSYAVSWVRQAPGQGLEWMGRIVPWLGHTQYAQKFQGRVTITADESTSTAYMELSSLRSEDTAVYYCARESPGYRYSFDVWDQGTLVTVSS VL: SYELTQPLSVSVALGQTARITCSGDAIGEKYVYWYQQKPGQAPVLVIYDDNNRPSGIPERFSGSNSGNTATLTISRAQAGDEADYYCASYDLQQARWVFGGGTKLTVLG	%	70
